B1: ACSBG2 (parent)
chain: FAQADALKGTLVSTLKEVKPTVFI

Variants of: B1
Method Notes: protein stability index of a GFP-peptide fusion (GPS, HEK-293T) (PSI 1-6); higher = more stable;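 also: lentivirally expressed fusions sorted by FACS into six bins by GFP to DsRed ratio, PSI derived from sequencing read proportions per bin multiplied by bin number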
Conditions: c terminus: a fixed tail appended
Can you tell me protein stability index for the items I'm about to list?
One number for each entry.

These solved cases illustrate the format of a correct answer.
sequence_variant=K8P recorded_endpoint="protein stability index" reported_result=1.4
sequence_variant=A6H recorded_endpoint="protein stability index" reported_result=1.61
sequence_variant=K8E recorded_endpoint="protein stability index" reported_result=1.41
sequence_variant=T14Y recorded_endpoint="protein stability index" reported_result=3.04
sequence_variant=D5M recorded_endpoint="protein stability index" reported_result=2.98
sequence_variant=L7E recorded_endpoint="protein stability index" reported_result=2.5
sequence_variant=T14I recorded_endpoint="protein stability index" reported_result=2.22
sequence_variant=V12E recorded_endpoint="protein stability index" reported_result=1.89
sequence_variant=G9C recorded_endpoint="protein stability index" reported_result=2.73
sequence_variant=A4H recorded_endpoint="protein stability index" reported_result=2.31

# next variant below
[Q] Provide protein stability index value for the following variant: `V12A`
[A] 1.64
